- system_tested: T1, recombinant, soluble human ASGR-1 (human, UniProt P07306 62-291)
- T1 construct: biotinylated in the binning assay; also called soluble huASGR-1; Soluble ASGR-1 (Amgen)
- T1 sequence: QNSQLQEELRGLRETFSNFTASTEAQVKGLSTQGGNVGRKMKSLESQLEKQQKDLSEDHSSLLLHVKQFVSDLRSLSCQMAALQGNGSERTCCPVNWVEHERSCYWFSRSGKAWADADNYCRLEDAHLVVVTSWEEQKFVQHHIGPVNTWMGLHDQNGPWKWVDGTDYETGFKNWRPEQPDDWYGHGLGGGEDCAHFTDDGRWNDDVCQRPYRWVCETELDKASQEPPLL
- assay_details: Octet BLI dissociation, pH 5.6 minus calcium
Each item that follows carries a reported % Change Compared to pH 7.4 + Calcium.
Please state the figure in %; there is no need to write the unit.

| binder | units_symbol | % Change Compared to pH 7.4 + Calcium |
| --- | --- | --- |
| 65C12 (antibody, V domains shown, hybridoma mAb) VH: EVQLVESGGGLVKPGGSLRLSCAASGFTFRSFSLNWVRQAPGKGLEWVSSISSSSSYIYYADSVKGRFTISRDNAKNSLYLQMNSLRAEDTAVYYCARDAYSHYWGQGTLVTVSS VL: EIVMTQSPATLSVFPGEGATLSCRASQSVSINLAWYQQKPGQAPRLLIYGASTRATGIPARFNASGSGTEFTLSISSLQSENFAVYYCQQYNTWPLTFGGGTKVEIK | % | 23 |
| 52H1 (antibody, V domains shown, hybridoma mAb) VH: QVQLVESGGGVVQPGRSLRLSCAASGFTFSGYGMHWVRQAPGKGLEWVAVIWYDGSNKYYADSVKGRFTISRDNSKNTLYLQMNSLRAEDTAVYYCARDRVYCSSSSCSYYYYYYGMDVWGQGTTVTVSS VL: SYELTQPPSVFVSPGQTASITSSGDKLGDKYVSWYQQKPGQSPVLVIYQDRKRPSGIPERFSGSNSGNTATLTISGTQAMDEADYYCQAWDNSTVVFGGGTKLTVL | % | 10 |

Ask | Recorded % Change Compared to pH 7.4 + Calcium for 62H10 (antibody, V domains shown, hybridoma mAb) VH: EVQLVESGGGLVKPGGSLRLSCAASGFTFSSYSMNWVRQAPGKGLEWVSSISSSSSYIYYADSVKGRFTISRDNAKNSLYLQMNSLRAEDTAVYYCARGGSRGFDPWGQGTLVTVSS VL: DIQMTQSPSSLSASVGDRVTITCRASQSITSYLNWYQQKPGKVPKLLISTASSLQSGVPSRFSGSGSGTDFTLTISSLQPEDFATYYCQQSHSFPFTFGPGTNVDFK , please?
Reply | 14

Ask | Cool, now 29E2 (antibody, V domains shown, hybridoma mAb) VH: QVQLVESGGGVVQPGRSLRLSCAASGFTFSNCVMHWVRQAPGKGLEWVAVIWYDGSNKYYADSVKGRITISRDNSKNTLYLQMNSLRAEDTAVYYCAREEYSSGWYDYGMDVWGQGTTVTVSS VL: DIQMTQSPSSLSASVGDRVTITCRASQAIRNDLGWYQQRPGKAPKRLIYAASSLQSGVPSRFSGSGSGTEFILTISSLQPEDFATYYCLQHYNYPRSFGQGTKLEIK
Reply | 38

Ask | Cool, now 172C3 (antibody, V domains shown, hybridoma mAb) VH: QVQLVQSGAEVKKPGASVKVSCKASGYTFRSYYMYWVRQAPGQGLEWVGTINPSGGSTNYAQKFQGRVTMTRDTSTSTLYMELNSLRSEDTAVYYCASGWELNYWGQGTLVTVSS VL: SSELTQDPAVSVALGQTVRITCQGDSLRNYYVSWYQQKPGQAPILVIYTKNSRPSGIPDRFSGSTSGNTASLTITGTQAEDEADYYCNSRDSSGNHVVFGGGTKLTVL
Reply | 0

This collection of values is drawn from patent US20190248902A1.
